- assayed target: Nav1.5/β1 (Homo sapiens)
- Construct: Nav1.5 (UniProt: Q14524.1); expressed in transfected cells; host or cells: Xenopus laevis oocytes (cRNA injection, Nav1.5:β1 2:1 by weight)
- protocol details: Two-electrode voltage clamp of Nav1.5/β1 expressed in Xenopus oocytes
- Type: cell-based
- cond: 2 μM
Give measured Gmax/Gmax0 for each item. Keep answers brief.
Give only the figure.

CCCCC/C=C\C/C=C\CCCCCCCC(=O)NCCS(=O)(=O)O [Lin-taurine, Linoleoyl taurine] has a reported Gmax/Gmax0 of 0.9

CCCCC/C=C\C/C=C\C/C=C\C/C=C\CCCC(=O)NCCS(=O)(=O)O [N-AT, N-arachidonoyl taurine] has a reported Gmax/Gmax0 of 0.7

CCCCC/C=C\C/C=C\CC/C=C\CCCC(=O)NCC(=O)O [Pin-glycine] has a reported Gmax/Gmax0 of 0.9

CC/C=C\C/C=C\C/C=C\C/C=C\C/C=C\C/C=C\CCC(=O)NCC(=O)O [DHA-glycine, docosahexaenoyl glycine] has a reported Gmax/Gmax0 of 1.0

---

- assayed target: Cav1.2/β3/α2δ (Homo sapiens)
- Construct: expressed in transfected cells; host or cells: Xenopus laevis oocytes (cRNA injection, Cav1.2:β3:α2δ 2:1:1 by weight)
- protocol details: Two-electrode voltage clamp of Cav1.2/β3/α2δ expressed in Xenopus oocytes (Ba2+ as charge carrier)
- Assay type: cell-based
- cond: 2 μM; relative current at 0 mV
test readout: ICa I/I0
Give only the figure.

CCCCC/C=C\C/C=C\CC/C=C\CCCC(=O)NCC(=O)O [Pin-glycine] has a reported ICa I/I0 of 0.8

CC/C=C\C/C=C\C/C=C\C/C=C\C/C=C\C/C=C\CCC(=O)NCC(=O)O [DHA-glycine, docosahexaenoyl glycine] has a reported ICa I/I0 of 0.9

CCCCC/C=C\C/C=C\CCCCCCCC(=O)NCC(=O)O [Lin-glycine] has a reported ICa I/I0 of 0.9

CCCCC/C=C\C/C=C\CCCCCCCC(=O)NCCS(=O)(=O)O [Lin-taurine, Linoleoyl taurine] has a reported ICa I/I0 of 0.7

---

- assayed target: Nav1.5/β1 (Homo sapiens, UniProt Q14524)
- Construct: Nav1.5 (UniProt: Q14524.1); expressed in transfected cells; host or cells: Xenopus laevis oocytes (cRNA injection, Nav1.5:β1 2:1 by weight)
- Sequence (Q14524 whole entry): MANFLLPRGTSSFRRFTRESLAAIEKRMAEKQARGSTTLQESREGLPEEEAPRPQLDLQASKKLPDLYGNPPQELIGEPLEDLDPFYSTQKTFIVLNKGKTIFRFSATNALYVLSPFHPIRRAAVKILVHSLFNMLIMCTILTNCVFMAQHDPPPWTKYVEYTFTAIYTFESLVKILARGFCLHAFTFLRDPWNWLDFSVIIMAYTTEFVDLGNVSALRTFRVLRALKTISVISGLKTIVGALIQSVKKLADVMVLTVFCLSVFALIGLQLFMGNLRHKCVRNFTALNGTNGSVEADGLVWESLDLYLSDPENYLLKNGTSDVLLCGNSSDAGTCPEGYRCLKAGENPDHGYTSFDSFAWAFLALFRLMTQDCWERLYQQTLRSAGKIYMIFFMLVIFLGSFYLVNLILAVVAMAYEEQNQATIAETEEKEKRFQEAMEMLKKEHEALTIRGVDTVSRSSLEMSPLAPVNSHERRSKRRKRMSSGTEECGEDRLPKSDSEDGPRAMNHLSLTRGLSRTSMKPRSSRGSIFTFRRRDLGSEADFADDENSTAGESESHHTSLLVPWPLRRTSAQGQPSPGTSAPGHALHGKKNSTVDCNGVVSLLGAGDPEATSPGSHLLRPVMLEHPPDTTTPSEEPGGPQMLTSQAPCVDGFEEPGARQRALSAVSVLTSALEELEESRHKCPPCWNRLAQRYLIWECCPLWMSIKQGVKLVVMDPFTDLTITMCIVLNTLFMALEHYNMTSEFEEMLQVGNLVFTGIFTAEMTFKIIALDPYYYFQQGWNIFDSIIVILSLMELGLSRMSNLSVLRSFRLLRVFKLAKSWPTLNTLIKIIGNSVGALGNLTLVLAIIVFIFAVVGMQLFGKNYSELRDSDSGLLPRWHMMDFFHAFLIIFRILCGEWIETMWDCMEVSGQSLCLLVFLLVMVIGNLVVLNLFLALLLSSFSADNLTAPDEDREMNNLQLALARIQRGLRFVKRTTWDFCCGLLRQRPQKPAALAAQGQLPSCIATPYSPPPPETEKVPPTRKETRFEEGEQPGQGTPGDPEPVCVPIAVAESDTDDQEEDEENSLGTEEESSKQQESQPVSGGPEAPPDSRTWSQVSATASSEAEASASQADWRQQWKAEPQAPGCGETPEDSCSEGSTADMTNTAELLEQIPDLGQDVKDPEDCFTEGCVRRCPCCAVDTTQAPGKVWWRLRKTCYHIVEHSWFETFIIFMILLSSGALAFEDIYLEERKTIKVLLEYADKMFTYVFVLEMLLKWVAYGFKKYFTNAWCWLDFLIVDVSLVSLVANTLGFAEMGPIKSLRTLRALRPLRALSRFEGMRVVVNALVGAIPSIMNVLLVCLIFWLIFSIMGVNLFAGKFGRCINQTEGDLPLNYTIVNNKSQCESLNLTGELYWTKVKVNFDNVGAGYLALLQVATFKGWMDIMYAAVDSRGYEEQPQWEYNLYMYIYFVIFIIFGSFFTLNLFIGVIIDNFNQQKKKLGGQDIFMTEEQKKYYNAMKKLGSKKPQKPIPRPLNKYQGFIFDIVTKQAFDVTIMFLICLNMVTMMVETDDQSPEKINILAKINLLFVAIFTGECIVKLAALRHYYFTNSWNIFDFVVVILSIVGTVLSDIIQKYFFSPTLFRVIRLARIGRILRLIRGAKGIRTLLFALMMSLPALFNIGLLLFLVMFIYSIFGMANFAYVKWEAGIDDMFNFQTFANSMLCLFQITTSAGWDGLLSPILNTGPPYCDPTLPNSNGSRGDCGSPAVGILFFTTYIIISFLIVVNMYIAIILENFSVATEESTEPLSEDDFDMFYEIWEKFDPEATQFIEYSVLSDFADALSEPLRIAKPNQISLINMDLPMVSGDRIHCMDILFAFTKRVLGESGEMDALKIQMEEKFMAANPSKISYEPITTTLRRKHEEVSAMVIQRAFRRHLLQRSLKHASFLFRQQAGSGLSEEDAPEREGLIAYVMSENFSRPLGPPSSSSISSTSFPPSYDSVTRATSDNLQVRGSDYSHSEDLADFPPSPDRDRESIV
- Sequence (Q07699 19-218 partner): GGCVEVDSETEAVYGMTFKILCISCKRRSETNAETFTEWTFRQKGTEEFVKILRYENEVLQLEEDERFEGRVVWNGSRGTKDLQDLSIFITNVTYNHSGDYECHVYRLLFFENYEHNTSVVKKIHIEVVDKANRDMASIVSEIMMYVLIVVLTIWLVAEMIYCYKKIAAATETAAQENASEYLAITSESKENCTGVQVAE
- protocol details: Two-electrode voltage clamp of Nav1.5/β1 expressed in Xenopus oocytes
- Type: cell-based
- cond: 20 μM
Label rule, in plain words: ΔV0.5 (voltage dependence of inactivation) of -20 mV and up is Condition met, under -20 mV is Condition not met.

Prompt line: Identify whether the reported ΔV0.5 (voltage dependence of inactivation) of the following molecule is -20 mV or greater: CCCCC/C=C\C/C=C\CC/C=C\CCCC(=O)NCCS(=O)(=O)O
Response line: Condition not met

Prompt line: Identify whether the reported ΔV0.5 (voltage dependence of inactivation) of the following molecule is -20 mV or greater: CCCCC/C=C\C/C=C\CCCCCCCC(=O)NCC(=O)O
Response line: Condition not met

Prompt line: Identify whether the reported ΔV0.5 (voltage dependence of inactivation) of the following molecule is -20 mV or greater: CCCCC/C=C\C/C=C\C/C=C\C/C=C\CCCC(=O)NCCS(=O)(=O)O
Response line: Condition not met

Prompt line: Identify whether the reported ΔV0.5 (voltage dependence of inactivation) of the following molecule is -20 mV or greater: CCCCC/C=C\C/C=C\CCCCCCCC(=O)NCCS(=O)(=O)O
Response line: Condition not met

Prompt line: Identify whether the reported ΔV0.5 (voltage dependence of inactivation) of the following molecule is -20 mV or greater: CC/C=C\C/C=C\C/C=C\C/C=C\C/C=C\C/C=C\CCC(=O)NCC(=O)O
Response line: Condition met

Prompt line: Identify whether the reported ΔV0.5 (voltage dependence of inactivation) of the following molecule is -20 mV or greater: CCCCC/C=C\C/C=C\CC/C=C\CCCC(=O)NCC(=O)O
Response line: Condition met

Prompt line: Identify whether the reported ΔV0.5 (voltage dependence of inactivation) of the following molecule is -20 mV or greater: CC/C=C\C/C=C\C/C=C\C/C=C\C/C=C\C/C=C\CCC(=O)NCCS(=O)(=O)O
Response line: Condition not met

---

- assayed target: Nav1.5/β1 (Homo sapiens)
- Construct: Nav1.5 (UniProt: Q14524.1); expressed in transfected cells; host or cells: Xenopus laevis oocytes (cRNA injection, Nav1.5:β1 2:1 by weight)
- protocol details: Two-electrode voltage clamp of Nav1.5/β1 expressed in Xenopus oocytes
- Format: cell-based
- cond: 0.7 μM
test readout: Gmax/Gmax0
Give only the figure.

For CCCCC/C=C\C/C=C\C/C=C\C/C=C\CCCC(=O)NCCS(=O)(=O)O on Nav1.5/β1 (Homo sapiens), measured Gmax/Gmax0 was 1.0

For CCCCC/C=C\C/C=C\CC/C=C\CCCC(=O)NCCS(=O)(=O)O on Nav1.5/β1 (Homo sapiens), measured Gmax/Gmax0 was 1.2

For CC/C=C\C/C=C\C/C=C\C/C=C\C/C=C\C/C=C\CCC(=O)NCCS(=O)(=O)O on Nav1.5/β1 (Homo sapiens), measured Gmax/Gmax0 was 0.9

---

- assayed target: Cav1.2/β3/α2δ (Homo sapiens)
- Construct: expressed in transfected cells; host or cells: Xenopus laevis oocytes (cRNA injection, Cav1.2:β3:α2δ 2:1:1 by weight)
- protocol details: Two-electrode voltage clamp of Cav1.2/β3/α2δ expressed in Xenopus oocytes (Ba2+ as charge carrier)
- Assay type: cell-based
- cond: 0.7 μM
Give measured ΔV0.5 (voltage dependence of inactivation) for each item. Keep answers brief.
Kindly provide the numeric value in mV only, without the unit symbol.

CC/C=C\C/C=C\C/C=C\C/C=C\C/C=C\C/C=C\CCC(=O)NCC(=O)O has a reported ΔV0.5 (voltage dependence of inactivation) of 6.4

CCCCC/C=C\C/C=C\CCCCCCCC(=O)NCC(=O)O has a reported ΔV0.5 (voltage dependence of inactivation) of -0.7

CC/C=C\C/C=C\C/C=C\C/C=C\C/C=C\C/C=C\CCC(=O)NCCS(=O)(=O)O has a reported ΔV0.5 (voltage dependence of inactivation) of 1.6

---

- assayed target: Cav1.2/β3/α2δ (Homo sapiens, UniProt Q13936)
- Construct: expressed in transfected cells; host or cells: Xenopus laevis oocytes (cRNA injection, Cav1.2:β3:α2δ 2:1:1 by weight)
- protocol details: Two-electrode voltage clamp of Cav1.2/β3/α2δ expressed in Xenopus oocytes (Ba2+ as charge carrier)
- Type: cell-based
- cond: 20 μM
- Description: Molecular Biology cRNA encoding Kv7.1 (UniProt: P51787), KCNE1 (UniProt: P15382.1), Nav1.5 (UniProt: Q14524.1), Nav β1 (UniProt: […]), Nav β3 (UniProt: […]), Cav1.2 (GenBank: CAA84346), Cav β3 (Uniprot: P54286), Cav β2 (Uniprot: P54288), and Cav α2δ (Uniprot: P13806) were transcribed using the mMessage mMachine T7 kit (Ambion). […] Xenopus laevis oocytes were recorded in the two-electrode voltage clamp (TEVC) configuration. […]
test readout: ΔV0.5 (voltage dependence of inactivation) (mV)
Kindly provide the numeric value in mV only, without the unit symbol.

CCCCC/C=C\C/C=C\CC/C=C\CCCC(=O)NCC(=O)O has a reported ΔV0.5 (voltage dependence of inactivation) of -3.4

CC/C=C\C/C=C\C/C=C\C/C=C\C/C=C\C/C=C\CCC(=O)NCC(=O)O has a reported ΔV0.5 (voltage dependence of inactivation) of 5.2

CCCCC/C=C\C/C=C\CCCCCCCC(=O)NCCS(=O)(=O)O has a reported ΔV0.5 (voltage dependence of inactivation) of -1.2

CCCCC/C=C\C/C=C\C/C=C\C/C=C\CCCC(=O)NCCS(=O)(=O)O has a reported ΔV0.5 (voltage dependence of inactivation) of 1.4

CCCCC/C=C\C/C=C\CC/C=C\CCCC(=O)NCCS(=O)(=O)O has a reported ΔV0.5 (voltage dependence of inactivation) of 6.0

CCCCC/C=C\C/C=C\CCCCCCCC(=O)NCC(=O)O has a reported ΔV0.5 (voltage dependence of inactivation) of -3.7

CC/C=C\C/C=C\C/C=C\C/C=C\C/C=C\C/C=C\CCC(=O)NCCS(=O)(=O)O has a reported ΔV0.5 (voltage dependence of inactivation) of -3.8

---

Give measured Gmax/Gmax0 for each item. Keep answers brief.
- assayed target: Kv7.1/KCNE1 (Homo sapiens, UniProt P51787)
- Construct: cRNA encoding Kv7.1 (UniProt: P51787), KCNE1 (UniProt: P15382.1); expressed in transfected cells; host or cells: Xenopus laevis oocytes (cRNA injection, Kv7.1:KCNE1 3:1 by weight)
- protocol details: Two-electrode voltage clamp of Kv7.1/KCNE1 expressed in Xenopus oocytes
- Format: cell-based
- cond: 7 μM
Give only the figure.

CCCCC/C=C\C/C=C\C/C=C\C/C=C\CCCC(=O)NCCS(=O)(=O)O [N-AT, N-arachidonoyl taurine] has a reported Gmax/Gmax0 of 0.9

CC/C=C\C/C=C\C/C=C\C/C=C\C/C=C\C/C=C\CCC(=O)NCC(=O)O [DHA-glycine, docosahexaenoyl glycine] has a reported Gmax/Gmax0 of 1.9

CCCCC/C=C\C/C=C\CCCCCCCC(=O)NCC(=O)O [Lin-glycine] has a reported Gmax/Gmax0 of 2.3

CCCCC/C=C\C/C=C\CCCCCCCC(=O)NCCS(=O)(=O)O [Lin-taurine, Linoleoyl taurine] has a reported Gmax/Gmax0 of 1.9

CC/C=C\C/C=C\C/C=C\C/C=C\C/C=C\C/C=C\CCC(=O)NCCS(=O)(=O)O [DHA-taurine] has a reported Gmax/Gmax0 of 1.7

CCCCC/C=C\C/C=C\CC/C=C\CCCC(=O)NCC(=O)O [Pin-glycine] has a reported Gmax/Gmax0 of 1.7

All figures here come from paper PMC7159882.
